# credit: PubChem BioAssay

test: osmotic lysis modulators in infected erythrocytes, primary screen, PSAC antagonist project, cell-based, P. falciparum Indochina, OD700, 3 h (AID 1156); conditions: higher = more signal, called active from +8 up or from −8 down
Test Readout: z-score

[[record]]
molecule = "COc1ccc([Si](C)(C)[C@H]2[C@H](CCO)O[C@@]3(C(=O)N(Cc4cccc(N5CCCCC5=O)c4)c4ccccc43)[C@@H]2C)cc1"
test_readout = "z-score"
test_value = 0.558

[[record]]
molecule = "CCOc1cc(C(O)C2C=CC3C(=O)N(C)C(=O)C3N2N2CCCCC2)ccc1O (centres undefined)"
test_readout = "z-score"
test_value = 0.0675

[[record]]
molecule = "CC=CC(O)C1C=CC2C(=O)N(C)C(=O)C2N1N1CCCCC1 (centres undefined)"
test_readout = "z-score"
test_value = -0.343

[[record]]
molecule = "COc1ccc([Si](C)(C)[C@H]2[C@H](CCn3cc([C@H](O)c4ccccc4)nn3)O[C@@]3(C(=O)N(Cc4cccc(N5C(=O)c6cccc7cccc5c67)c4)c4ccccc43)[C@@H]2C)cc1"
test_readout = "z-score"
test_value = -0.58


###

assay: Plasmodium falciparum growth inhibition, primary screen, strain 3D7, DAPI fluorescence, 100 nL (AID 1184);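 note: parasites grown inside human red blood cells in medium with human serum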; conditions: P. falciparum 3D7 growth, 3 d, higher = more signal
Test Readout: z-score

[[record]]
compound = "CN1C(=O)C2C=CC(C(O)Cc3ccccc3)N(N(c3ccccc3)c3ccccc3)C2C1=O (centres undefined)"
test_value = -0.077

[[record]]
compound = "CCOC(=O)C1=C[C@@H](c2ccccc2)N(S(=O)(=O)c2ccc(C)cc2)[C@H]1c1cccc(Cl)c1"
test_value = -2.03

[[record]]
compound = "CN(C)CCCNC(=O)[C@@]1(C)c2ccccc2C(=O)N(Cc2cc(C(F)(F)F)cc(C(F)(F)F)c2)[C@H]1c1ccc(CO)cc1"
test_value = -1.27

[[record]]
compound = "CC(C)(C)OC(=O)CC[C@]1(C(=O)O)N=C(c2ccc(OCCCO)cc2)O[C@H]1c1ccccc1"
test_value = -1.62


###

assay: splicing luciferase reporter signal modulators, primary screen, spliceosome inhibition project, cell-based, HEK293, splice +/- reporter (AID 1101); details: luminescence, 24 h, higher = more signal, called active from +8 up or from −8 down;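 note: HEK293 cells carrying a splicing-competent luciferase reporter gene; test concentration not given here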
Test Readout: z-score

[[record]]
cpd_smiles = "CC(C)(C)OC(=O)CC[C@]1(C(=O)O)N=C(c2ccc(OCCCO)cc2)O[C@H]1c1ccccc1"
test_readout = "z-score"
test_value = -1.32

[[record]]
cpd_smiles = "CCOC(=O)C[C@H]1[C@H](OC(=O)c2ccc(-c3ccccc3)cc2)[C@@H](NC(=O)C2CCCCC2)c2cc(OCCCO)ccc2N1C(=O)c1ccccc1"
test_readout = "z-score"
test_value = -0.0213

[[record]]
cpd_smiles = "[N-]=[N+]=NCc1ccccc1C[C@@]1(C(N)=O)N=C(c2ccc(OCCCO)cc2)O[C@@H]1c1ccccc1CN=[N+]=[N-]"
test_readout = "z-score"
test_value = 0.515

[[record]]
cpd_smiles = "CCOC(=O)C[C@H]1[C@H](OC(=O)c2ccccc2-c2ccccc2)[C@@H](NC(=O)c2ccc3ccccc3n2)c2cc(OCCCO)ccc2N1C(=O)c1ccc2ccccc2n1"
test_readout = "z-score"
test_value = -1.19


###

composite z-score reference
tested on: glycogen synthase kinase-3 (GSK3A per assay name; protocol says GSK3B); assay: GSK3 binders on small-molecule microarrays, primary screen, biochemical, small-molecule microarray, 635 nm fluorescence, GSK3A (AID 1103); conditions: small-molecule microarray binding, fluorescence 635 nm; higher = more signal; note: the record names both GSK3A and GSK3B
Test Readout: composite z-score

[[record]]
compound = "COCCCNC(=O)[C@@]1(Sc2ccc(C)cc2)CC(=O)N(Cc2cc(C(F)(F)F)cc(C(F)(F)F)c2)[C@@H]1c1ccc(CO)cc1"
test_value = -0.257

[[record]]
compound = "Cc1ccc(S[C@]2(C(=O)O)CC(=O)N(Cc3ccccc3Cl)[C@@H]2c2ccc(CO)cc2)cc1"
test_value = -0.851

[[record]]
compound = "COC(=O)Cn1c(C(=O)N2CCCC2)cc2c1C[C@H]1CN(C(=O)c3ccccc3)[C@@](Cc3ccc(F)cc3)(C(=O)OC)[C@@H]21"
test_value = -0.576

[[record]]
compound = "CN1C(=O)C2C=CC(C(O)Cc3ccccc3)N(N(c3ccccc3)c3ccccc3)C2C1=O (centres undefined)"
test_value = -0.227

[[record]]
compound = "C=CC[C@]12N=C(c3ccc(OCCCO)cc3)O[C@H]1c1ccccc1N(C)C2=O"
test_value = 1.3

[[record]]
compound = "CCOC(=O)C[C@H]1[C@H](OC(=O)c2ccc(-c3ccccc3)cc2)[C@@H](NC(=O)c2ccc3ccccc3c2)c2cc(OCCCO)ccc2N1C(=O)c1ccc2ccccc2n1"
test_value = 0.439

[[record]]
compound = "CO[C@H]1O[C@H](CO)[C@@H](OC(=O)c2ccc(Br)cc2)[C@@H]2OC(=O)[C@@H](Cc3ccc4ccccc4c3)C/C=C/C[C@H](Cc3ccc4ccccc4c3)C(=O)O[C@@H]12"
test_value = 0.548

[[record]]
compound = "O=C(N1CCCCC1)[C@@]1(Cc2ccccc2)COC(c2ccc(OCCCO)cc2)=N1"
test_value = 0.705

[[record]]
compound = "CC(C)NC(=O)[C@@]1(C)c2ccccc2C(=O)N(C(C)C)[C@H]1c1ccc(CO)cc1"
test_value = -0.643

[[record]]
compound = "CCOC(=O)[C@H]1C/C=C/C[C@H](C(=O)OCC)C(=O)O[C@H]2[C@@H](OC)O[C@H](CO)[C@@H](OC(=O)CCc3ccccc3)[C@@H]2OC1=O"
test_value = -1.46

[[record]]
compound = "COc1ccc(C(O)C2C=CC3C(=O)N(c4ccccc4)C(=O)C3N2Nc2ccc(C#N)cc2)c2ccccc12 (centres undefined)"
test_value = 0.811

[[record]]
compound = "COc1cc(CO)cc(I)c1O[C@H]1C=C(C(=O)NCCO)C[C@@H](N(CC2CCCCC2)C(=O)c2ccc(C(F)(F)F)cc2)[C@@H]1O"
test_value = 0.0722

[[record]]
compound = "CO[C@H]1O[C@H](CO)[C@@H](OC(=O)Nc2ccccc2-c2ccccc2)[C@H](OC(=O)Nc2ccc3c(c2)OCO3)[C@@H]1OC(=O)Nc1ccc2c(c1)OCO2"
test_value = 1.34

[[record]]
compound = "CCOC(=O)C[C@H]1[C@H](OC(=O)c2ccc(C(=O)c3ccccc3)cc2)[C@@H](NC(=O)c2ccc3ccccc3c2)c2cc(OCCCO)ccc2N1C(=O)c1ccccc1"
test_value = 0.993


###

Entries and their composite z-score
assay: small-molecule microarray binders of probe aWnt5a, primary screen, biochemical, biotinylated probe, 635/667 nm fluorescence (AID 1113); conditions: higher = more signal;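 note: score merges 667 nm fluorescence intensity with signal-to-noise per printed feature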
Test Readout: composite z-score

[[record]]
compound = "NCCCCCNC(=O)[C@@H]1C[C@@H]2C(=O)N[C@@H](CCCCN)C(=O)N2[C@@H]1c1cccc(OCCO)c1"
test_value = 0.0921

[[record]]
compound = "COc1cc(CO)cc(I)c1O[C@H]1C=C(C(=O)NCCO)C[C@@H](NCc2ccccc2F)[C@@H]1O"
test_value = -0.264

[[record]]
compound = "COCCCNC(=O)[C@]1(Cc2ccccc2CN=[N+]=[N-])N=C(c2ccc(OCCCO)cc2)O[C@@H]1c1ccccc1"
test_value = 0.0519

[[record]]
compound = "COC(=O)C1(Cc2ccccc2)C=C2C(=C(c3ccccc3)C(=O)C2C)CN1 (stereo unspecified)"
test_value = 1.11

[[record]]
compound = "O=C1C[C@]2(c3ccc([N+](=O)[O-])cc3)C(=O)N(Cc3ccccc3)c3cc(CO)ccc3[C@H]2N1CC12CC3CC(CC(C3)C1)C2"
test_value = -0.281

[[record]]
compound = "NCCCCCCNC(=O)[C@H]1C[C@H]2C(=O)N[C@@H](Cc3ccccc3)C(=O)N2[C@H]1c1ccc(O)cc1"
test_value = -0.0033

[[record]]
compound = "COC(=O)[C@@]1(Cc2ccccc2)[C@H]2c3cc(C(=O)N4CCCC4)n(Cc4cc(F)cc5c4OCOC5)c3C[C@H]2CN1C(=O)c1ccccc1"
test_value = 0.14

[[record]]
compound = "O=C1O[C@@H](c2ccccc2)[C@@H](c2ccccc2)N2[C@@H](c3ccc(O)cc3)[C@]3(C(=O)Nc4ccccc43)[C@@H](C(=O)Nc3nc4ccccc4s3)[C@H]12"
test_value = 0.0495

[[record]]
compound = "[N-]=[N+]=NCc1ccccc1C[C@@]1(C(=O)N2CCCCC2)N=C(c2ccc(OCCCO)cc2)O[C@@H]1c1ccccc1N=[N+]=[N-]"
test_value = -0.392

[[record]]
compound = "O=C1O[C@H](c2ccccc2)[C@H](c2ccccc2)N2[C@H]1[C@@H](C(=O)O)[C@]1(C(=O)Nc3ccccc31)[C@H]2c1ccc(O)cc1"
test_value = -0.1

[[record]]
compound = "COCC(=C=CC[C@H](O)c1cccc(OCCO)c1)C[C@H](O)c1ccccn1"
test_value = 0.0151

[[record]]
compound = "O=C1C[C@@](C(=O)NCC(F)(F)F)(c2ccc([N+](=O)[O-])cc2)[C@@H](c2ccc(CO)cc2)N1C1CCCCC1"
test_value = -0.006

[[record]]
compound = "CCCCN1CC=CC23O[C@@H]4C=CCOC(=O)[C@@H]4[C@H]2C(=O)N(CCCO)[C@@H]3C1=O (stereo partly specified)"
test_value = -0.202

[[record]]
compound = "NC(=O)NCC#Cc1ccc2c(c1)[C@]1(C(=O)N2)[C@H](C(=O)O)[C@H]2C(=O)O[C@H](c3ccccc3)[C@H](c3ccccc3)N2[C@@H]1c1ccccc1OCCO"
test_value = 0.0354

[[record]]
compound = "C=CCN1C(=O)[C@@]2(CCC(=O)OC(C)(C)C)N=C(c3ccc(OCCCO)cc3)O[C@H]2c2ccccc21"
test_value = 0.065

[[record]]
compound = "CC=CC(O)C1C=CC2C(=O)N(C)C(=O)C2N1Nc1ccc([N+](=O)[O-])cc1[N+](=O)[O-] (stereo unspecified)"
test_value = -0.148

[[record]]
compound = "O=C(O)[C@]1(Cc2ccccc2)N=C(c2ccc(OCCCO)cc2)O[C@@H]1c1ccccc1"
test_value = -0.128

[[record]]
compound = "O=C1NC(=O)C2C1C=CC(C(O)c1c(F)cccc1Cl)N2Nc1ccccn1 (stereo unspecified)"
test_value = 0.0108

[[record]]
compound = "O=C1OC[C@@H](c2ccccc2)N2CC(/C=C/c3ccccc3)=CC12 (stereo partly specified)"
test_value = -0.284

[[record]]
compound = "C=CC[C@]12N=C(c3ccc(OCCCO)cc3)O[C@H]1c1ccccc1N(C)C2=O"
test_value = 0.0169

[[record]]
compound = "CC(C)CNC(=O)[C@@H]1c2ccccc2C(=O)N(Cc2cc(F)cc(C(F)(F)F)c2)[C@H]1c1ccc(CO)cc1"
test_value = -0.0459

[[record]]
compound = "CCOC(=CC(=O)OC)CC(O)c1cccc(Cl)c1 (stereo unspecified)"
test_value = -0.0685

[[record]]
compound = "C=C[C@H](COC(C)=O)NS(=O)(=O)c1ccc(Br)cc1"
test_value = -0.0721

[[record]]
compound = "CC(C)CN1C(=O)[C@@]2(Cc3ccccc31)c1ccccc1C(=O)N(Cc1ccccc1C(F)(F)F)[C@H]2c1ccc(CO)cc1"
test_value = -0.2

[[record]]
compound = "C=CCNC(=O)[C@H]1[C@@H]2C(=O)O[C@@H](c3ccccc3)[C@@H](c3ccccc3)N2[C@@H](c2ccccc2OCCO)[C@]12C(=O)N(C(=O)OCCOC)c1ccc(C#CC3=CCCCC3)cc12"
test_value = 0.125

[[record]]
compound = "C=C(CCCC)/C(=C/C[C@@H](OC(C)=O)c1ccc(CO)o1)c1cc(C(=O)OC)ccc1OC"
test_value = -0.0758

[[record]]
compound = "C[C@@H]1ON(c2ccc(C(=O)OC(C)(C)C)cc2)[C@H](c2ccc(Br)cc2)[C@H]1C(=O)N1C(=O)OC[C@H]1Cc1ccccc1"
test_value = -0.0643

[[record]]
compound = "CC(C)(C)OC(=O)CC[C@]1(C(=O)O)N=C(c2ccc(OCCCO)cc2)O[C@H]1c1ccccc1"
test_value = -0.096

[[record]]
compound = "CCCNC(=O)[C@@]1(c2ccc([N+](=O)[O-])cc2)CC(=O)N(C2CCCCC2)[C@@H]1c1ccc(CO)cc1I"
test_value = 0.108

[[record]]
compound = "Cc1ccc(S[C@]2(C(=O)NCC(F)(F)F)CC(=O)N(Cc3ccccc3)[C@@H]2c2ccc(CO)cc2)cc1"
test_value = -0.169

[[record]]
compound = "CN(C)CCCNC(=O)[C@@H]1c2ccccc2C(=O)N(CC23CC4CC(CC(C4)C2)C3)[C@H]1c1ccc(CO)cc1"
test_value = 0.0215

